# target.or.system: SARS-CoV-2 Papain-Like Protease (PLpro) (Severe acute respiratory syndrome coronavirus 2 (2019-nCoV) (SARS-CoV-2))
# method.description: biochemical
# experimental.context: SARS-CoV-2 PLpro enzymatic fluorescence assay; read-out: PLpro IC50
pIC50: −log10 of the molar value.
observation.type: pIC50

Sample answers from the record:
# compound, pIC50
records = [
    ("Cc1ccc(OCC2CCN2C)cc1C(=O)NC1(c2cccc3ccc(O)cc23)CC1 (stereo not shown)", "> 7.00"),
    ("Cc1cc2c(cc1C(=O)NC1(c3cccc4ccccc34)CC1)NCCC2", "6.00 to 7.00"),
    ("Cc1ccc(OCCN(C)C)cc1C(=O)NC1(c2ccc(Oc3ccccc3)cc2)CC1", "5.30 to 6.00"),
    ("CC(c1cccc2ncccc12)N1CCC(C(=O)NCc2cccc(F)c2)CC1 (stereo not shown)", "< 5.30"),
    ("COCC(NC(=O)c1cc(N)ccc1C)c1cccc2ccccc12 (stereo not shown)", "< 5.30"),
    ("Cc1ccc(CCC2CCN2)cc1C(=O)NC1(c2cccc3ccccc23)CC1 (stereo not shown)", "> 7.00"),
    ("Cc1ccc(OCCNS(C)(=O)=O)cc1C(=O)NC1(c2cccc3ccccc23)CC1", "6.00 to 7.00"),
    ("Cc1ccc(OCCN(C)C)cc1C(=O)NC1(c2ccccc2C)CC1", "5.30 to 6.00"),
    ("Cc1ccc(N(C)CCN(C)C)cc1C(=O)NC1(c2cccc3ccccc23)CC1", "> 7.00"),
    ("Cc1cc2cc(C3CNC3)[nH]c2cc1C(=O)N[C@H](C)c1cccc2ccccc12", "5.30 to 6.00"),
]

Provide each entry's pIC50 from the list below.
1. Cc1ccc(OCCNC(=O)OC(C)(C)C)cc1C(=O)N[C@H](C)c1cccc2ccccc12
2. Cc1ccc(OCCN(C)C)cc1C(=O)NC1(c2cccc3cc(F)ccc23)CC1
3. Cc1cc2ccn(CC3CNC3)c2cc1C(=O)NC1(c2cccc3ccccc23)CC1
4. C=C(C)c1cc(C2(NC(=O)c3cc(OCC4CCN4C)ccc3C)CC2)c2ccccc2c1 (stereo not shown)
5. Cc1cc2nc[nH]c2cc1C(=O)N[C@H](C)c1cccc(-c2ccc(CN[C@H]3CC[C@@H](O)C3)s2)c1
6. C=Cc1cc(C2(NC(=O)c3cc(OC[C@@H]4CCN4C)c(F)cc3C)CC2)c2cccnc2c1

Marked response:
1: 5.30 to 6.00; 2: > 7.00; 3: > 7.00; 4: > 7.00; 5: 6.00 to 7.00; 6: > 7.00

Look at each compound and report its pIC50.
1. Cc1ccc(OCCN(C)C)cc1C(=O)NC1(c2cc(C#N)cc3ccccc23)CC1
2. Cc1ccc(OCC2CCCN2)cc1C(=O)NC1(c2cccc3ccccc23)CC1 (stereo not shown)
3. Cc1cc2cc(CNC(=O)OC(C)(C)C)[nH]c2cc1C(=O)N[C@H](C)c1cccc2ccccc12
4. Cc1ccc(NC2CNC2)cc1C(=O)NCc1cccc(-c2ccc(CN3CCCC3)s2)c1
5. Cc1ccc(N)cc1C(=O)NC1(c2cccc3ccccc23)CC1
6. Cc1ccc(OCCN(C)C)cc1C(=O)NC1(c2csc3ccccc23)CC1

Marked response:
1: > 7.00; 2: > 7.00; 3: < 5.30; 4: < 5.30; 5: 6.00 to 7.00; 6: 6.00 to 7.00

Could you report pIC50 for every entry in the following list?
1. CNCCOc1ccc(C)c(C(=O)NC2(c3cccc4ccccc34)CN(C)C2)c1
2. Cc1ccc(OCC(N)=O)cc1C(=O)NC1(c2cccc3ccccc23)CC1
3. Cc1ccc(NC2CNC2)cc1C(=O)NC1(c2cccc(-c3ccccc3)c2)CC1
4. Cc1ccc(OC[C@H]2C[C@@H](O)CN2C)cc1C(=O)NC1(c2cccc3ccccc23)CC1 (single isomer, unassigned)
5. CC(c1cccc2ccccc12)N1CCc2ccc(N)cc2C1 (stereo not shown)
6. Cc1ccc(OCCN(C)C)cc1C(=O)NC1(c2ccccc2Cl)CC1
7. Cc1ccc(N2CCNCC2)cc1C(=O)NC1(c2cccc3ccccc23)CC1
8. Cc1ccc(OCCN(C)C)cc1C(=O)NC1(c2ccccc2OCc2ccccc2)CC1

Marked response:
["< 5.30", "6.00 to 7.00", "5.30 to 6.00", "> 7.00", "5.30 to 6.00", "5.30 to 6.00", "> 7.00", "5.30 to 6.00"]

List the reported pIC50 of each compound below.
1. Cc1ccc(OCCN(C)C)cc1C(=O)N[C@H](C)c1cccc2ccccc12
2. Cc1ccc(OCC2CCN2C)cc1C(=O)NC1(c2cc(N(C)C)cc3ccccc23)CC1 (stereo not shown)
3. Cc1ccc([N+](=O)[O-])cc1C(=O)NC(c1cccc2ccccc12)C1CCOCC1 (stereo not shown)
4. CNCCOc1ccc(C)c(C(=O)NC2(c3cc(-c4cccs4)cc4ccccc34)CC2)c1

Marked response:
["6.00 to 7.00", "> 7.00", "< 5.30", "> 7.00"]
